Here, each record is paired with measured Fold change MFI data.
- Target Or Test System: T1, chlorocebus (African green monkey) PVR expressed on Vero cells (chlorocebus (African green monkey), UniProt P32506 21-417)
- T1 construct: whole, on cells; also called chlorocebus PVR
- T1 sequence (looked up): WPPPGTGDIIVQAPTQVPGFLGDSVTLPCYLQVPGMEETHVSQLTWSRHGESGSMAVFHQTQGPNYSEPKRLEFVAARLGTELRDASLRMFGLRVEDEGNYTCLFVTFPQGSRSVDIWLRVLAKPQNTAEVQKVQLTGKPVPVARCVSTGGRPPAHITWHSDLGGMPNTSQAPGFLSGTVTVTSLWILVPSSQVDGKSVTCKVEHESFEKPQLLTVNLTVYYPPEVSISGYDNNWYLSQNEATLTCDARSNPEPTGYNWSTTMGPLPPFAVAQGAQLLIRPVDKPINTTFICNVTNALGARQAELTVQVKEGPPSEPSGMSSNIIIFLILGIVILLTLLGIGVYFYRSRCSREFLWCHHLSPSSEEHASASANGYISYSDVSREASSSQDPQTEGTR
- Experimental Protocol: flow cytometry, 10 ug/ml antibody on Vero cells; MFI divided by the MFI of K0
Respond with the number and no other words.

Binder	Fold change MFI
VH0/Vκ0 Ala56 (antibody, V domains shown, chimeric 5B9 N56 substitution variant; also called N56A) VH: QVQLQQSGAELMKPGASVKISCKATGYTFSNYWIEWIKQRPGHGLEWIGEIFPGSGRINFNEKFKGKATFTADTSSDTTYMQLSSLTSADSAVYYCARTKIYGNSFDYWGQGTTLTVSP VL: DIMMTQSHKFMSTSVGDRVNITCKASQDVGTAVVWYQQKPGQSPKLLIYWASSRHAGVPDRFTGSGSGTDFTLTISNVQSEDLSDYFCQQYSRYPLTFGAGTKLELK	1.2

Next up:
Value of measured Fold change MFI for the entry VH0/Vκ0 Thr56 (antibody, V domains shown, chimeric 5B9 N56 substitution variant; also called N56T) VH: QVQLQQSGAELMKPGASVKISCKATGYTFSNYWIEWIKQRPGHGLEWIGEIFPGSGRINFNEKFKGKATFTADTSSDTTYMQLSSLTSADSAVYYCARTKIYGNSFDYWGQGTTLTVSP VL: DIMMTQSHKFMSTSVGDRVNITCKASQDVGTAVVWYQQKPGQSPKLLIYWASSRHTGVPDRFTGSGSGTDFTLTISNVQSEDLSDYFCQQYSRYPLTFGAGTKLELK : 1.19
